OBSERVABLE: logP
// return a plain number; no unit text

molecule=C=CCC1(C(C)(C)C)C(=O)NC(=O)NC1=O measured_result=1.64
molecule=CCC1(CC)C(=O)NC(=S)NC1=O measured_result=1.5
molecule=CC(C)(C)C1C(=O)NC(=O)NC1=O measured_result=0.28
molecule=CCC1(C(C)(C)C)C(=O)NC(=O)NC1=O measured_result=1.38
molecule=CC(C)C1(C(C)C)C(=O)NC(=O)NC1=O measured_result=1.56
molecule="CCC(C)C1(CC)C(=O)NC(=O)NC1=O (stereo not drawn)" measured_result=1.65

Task item: Suppose we examine the molecule CCCC1(CCC)C(=O)NC(=O)NC1=O ; what logP value has been reported?
Reply: 1.75

* * *

OBSERVABLE: logP
// return a plain number; no unit text

smiles=CC(C)(C)C1(Cl)C(=O)NC(=O)NC1=O observable=logP measured_result=0.82
smiles=CCCCC1(CCCC)C(=O)NC(=O)NC1=O observable=logP measured_result=2.7
smiles=CC(C)(C)C1(C)C(=O)NC(=O)NC1=O observable=logP measured_result=0.8
smiles=CCCC1(CCC)C(=O)NC(=S)NC1=O observable=logP measured_result=2.66

Task item: Suppose we examine the compound CC(C)C1(C)C(=O)NC(=O)NC1=O ; what logP value has been reported?
Reply: 0.54

Task item: Suppose we examine the compound CC(C)C1C(=O)NC(=O)NC1=O ; what logP value has been reported?
Reply: -0.02
